- target_or_system: STAT3 (Homo sapiens, UniProt P40763)
- Sequence (P40763 whole entry): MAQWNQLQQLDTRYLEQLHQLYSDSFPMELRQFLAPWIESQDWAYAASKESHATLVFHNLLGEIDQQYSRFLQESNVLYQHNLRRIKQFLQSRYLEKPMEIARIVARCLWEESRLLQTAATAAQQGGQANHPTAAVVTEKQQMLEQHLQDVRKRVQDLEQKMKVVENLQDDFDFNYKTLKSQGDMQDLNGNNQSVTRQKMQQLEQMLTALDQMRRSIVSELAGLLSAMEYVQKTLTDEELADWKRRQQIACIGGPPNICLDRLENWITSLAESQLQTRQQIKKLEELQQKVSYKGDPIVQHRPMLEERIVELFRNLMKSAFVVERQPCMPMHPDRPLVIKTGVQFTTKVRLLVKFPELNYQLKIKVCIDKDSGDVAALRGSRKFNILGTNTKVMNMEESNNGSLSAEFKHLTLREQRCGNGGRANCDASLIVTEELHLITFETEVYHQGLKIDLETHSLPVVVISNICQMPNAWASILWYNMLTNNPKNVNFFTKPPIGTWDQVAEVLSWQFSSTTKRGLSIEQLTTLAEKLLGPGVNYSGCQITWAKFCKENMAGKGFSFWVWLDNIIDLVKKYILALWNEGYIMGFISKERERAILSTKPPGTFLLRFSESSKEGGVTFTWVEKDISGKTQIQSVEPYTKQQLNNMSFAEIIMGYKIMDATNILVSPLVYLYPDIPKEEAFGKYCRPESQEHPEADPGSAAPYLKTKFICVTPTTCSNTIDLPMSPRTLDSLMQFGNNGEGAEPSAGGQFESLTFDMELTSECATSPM
- procedure_summary: STAT3 HiBiT degradation assay in transfected A549 cells
- Assay type: cell-based
- Parameters: expressed in transfected cells; host or cells: A549
- condition_parameters: A549, 24 h; read-out: STAT3 HiBiT A549 degradation 24 h: Average external-Abs DC50
Catalogue of DC50 values

>>> observed_value("Cc1ncsc1-c1ccc([C@H](C)NC(=O)[C@@H]2C[C@@H](O)CN2C(=O)[C@@H](NC(=O)CCCCc2ccc(CO[C@H](C)[C@H](CCC(N)=O)NC(=O)[C@@H]3Cc4cccc5c4N3C(=O)[C@@H](NC(=O)c3cc4cc(C(=O)P(=O)(O)O)ccc4[nH]3)CC5)cc2)C(C)(C)C)cc1")
"0.1 to 1 µM"
>>> observed_value("Cc1ncsc1-c1ccc([C@H](C)NC(=O)[C@@H]2C[C@@H](O)CN2C(=O)[C@@H](NC(=O)CCCCCc2cccc(OC[C@H](CCC(N)=O)NC(=O)[C@@H]3Cc4cccc5c4N3C(=O)[C@@H](NC(=O)c3cc4cc(C(=O)P(=O)(O)O)ccc4[nH]3)CC5)c2F)C(C)(C)C)cc1")
"< 0.01 µM"

Proceed to the following item.
Data point: Cc1ncsc1-c1ccc([C@H](C)NC(=O)[C@@H]2C[C@@H](O)CN2C(=O)[C@@H](NC(=O)CCCCCc2cccc(NC(=O)[C@H](CCC(N)=O)NC(=O)[C@@H]3Cc4cccc5c4N3C(=O)[C@@H](NC(=O)c3cc4cc(C(=O)P(=O)(O)O)ccc4[nH]3)CC5)c2Cl)C(C)(C)C)cc1 ; DC50 = 0.01 to 0.1 µM
